molecular target: KRas^G12V (Homo sapiens, UniProt P01116, G12V); construct: Biotinylated KRas (corresponding to amino acids 1-169, produced at Accelegan Inc.); biotin (biotinylated); purchased Accelegan Inc; assay: KRas binding assay (TR-FRET tracer displacement), KRas G12V
Sequence (P01116 1-169 isoform P01116-2 G12V): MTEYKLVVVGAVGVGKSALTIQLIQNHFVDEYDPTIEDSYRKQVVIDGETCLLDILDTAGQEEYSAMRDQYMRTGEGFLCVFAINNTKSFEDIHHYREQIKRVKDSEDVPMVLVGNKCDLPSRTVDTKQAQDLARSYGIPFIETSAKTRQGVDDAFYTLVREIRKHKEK
RECORDED ENDPOINT: IC50 (nM)

INSERT INTO results (compound, recorded_endpoint, measured) VALUES
  ('CCc1c(F)ccc2cc(O)cc(-c3ncc4c(N5CC6CCC(CCC(N)=O)(C6)C5)nc(OC[C@@]56CCCN5C[C@H](F)C6)nc4c3F)c12 (some centres unmarked)', 'IC50', 8),
  ('C[C@@]1(O)CCCN(c2nc(OCC34CCCN3CCC4)nc3c(F)c(-c4ccc(F)c5sc(N)c(C#N)c45)ncc23)C1', 'IC50', 120),
  ('CCc1c(F)ccc2cc(O)cc(-c3ncc4c(N5CC6CCC(C5)C6C#N)nc(OC[C@@]56CCCN5C[C@H](F)C6)nc4c3F)c12 (single isomer, unassigned) [Example 560]', 'IC50', 85),
  ('Oc1cc(-c2ncc3c(N4C[C@@H]5C[C@H](C4)[C@H](O)C5)nc(OC[C@@]45CCCN4C[C@H](F)C5)nc3c2F)c2ccc(F)cc2c1', 'IC50', 19),
  ('CCc1c(F)ccc2cc(O)cc(-c3ncc4c(N5CCC6(CC5)OCCC6O)nc(OC[C@@]56CCCN5C[C@H](F)C6)nc4c3F)c12 (some centres unmarked)', 'IC50', 880);

P. CCc1c(F)ccc2cc(O)cc(-c3ncc4c(N5CCC[C@@](C)(O)C5)nc(N5CC(C)(N)C5)nc4c3F)c12
Q. CCc1c(F)ccc2cc(O)cc(-c3ncc4c(N5CCOCC(C)(O)C5)nc(OCC56CCCN5[C@H](COC(=O)N(C)C)CC6)nc4c3F)c12 (stereo in doubt)
Smaller IC50 value? Options are P and Q In your reply, give the label of the chosen option.
Q

1. CCc1c(F)ccc2cc(O)cc(-c3ncc4c(NCc5cc(C(=O)N(C)C)n(CCC#N)n5)nc(OC[C@@]56CCCN5C[C@H](F)C6)nc4c3F)c12
2. CCc1c(F)ccc2cc(O)cc(-c3ncc4c(N5CCC(CC6CCCO6)C5)nc(OC[C@@]56CCCN5C[C@H](F)C6)nc4c3F)c12 (some centres unmarked)
When their IC50 values are compared, which is larger, 1 or 2 ? Record your answer as the label of the chosen record.
2
(2: 82 nM, 1: 12 nM)

P. CCc1c(F)ccc2cc(O)cc(-c3ncc4c(N5CCC(Cn6cccn6)C5)nc(OC[C@@]56CCCN5C[C@H](F)C6)nc4c3F)c12 (some centres unmarked)
Q. CCc1c(F)ccc2cc(O)cc(-c3ncc4c(N5CC6CCC(COCCO)(C6)C5)nc(OC[C@@]56CCCN5C[C@H](F)C6)nc4c3F)c12 (some centres unmarked)
Field: lower IC50 | Options: P / Q Kindly state the label of the option you pick.
Q

I. C[C@@]1(O)CCCN(c2nc(OC[C@@]34CCCN3C[C@H](F)C4)nc3c(F)c(-c4c(C5CC5)c(Cl)cc5[nH]ncc45)ncc23)C1
II. Cc1cc2[nH]c(=O)[nH]c2c(-c2ncc3c(N4CCC[C@@](C)(O)C4)nc(OCC45CCCN4CCC5)nc3c2F)c1C
Compare I and II by numeric IC50 and name the larger one. Return value: the label identifying the chosen record.
II
(II: 1050 nM, I: 6 nM)

1. CCc1c(F)ccc2cc(O)cc(-c3ncc4c(N5CCCn6nc(S(=O)(=O)NC)cc6C5)nc(OC[C@@]56CCCN5C[C@H](F)C6)nc4c3F)c12
2. Cc1cc2c(c(-c3ncc4c(N5CCC[C@@](C)(O)C5)nc(OCC56CCCN5CCC6)nc4c3F)c1C)CC(=O)N2
Select one. Lower IC50: 1 or 2 Which one? Tell me its label.
1
(1: 6 nM, 2: 1920 nM)
